target: Follistatin-related protein 3 (Homo sapiens) (UniProt O95633); assay: FSTL3 binders on small-molecule microarrays, primary screen, biochemical, small-molecule microarray, 635 nm fluorescence (AID 1105); settings: FSTL3 binding, higher = more signal;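 further: score merges emission near 667 nm and signal to noise per printed spot across three slides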
Sequence (O95633 whole entry, looked up): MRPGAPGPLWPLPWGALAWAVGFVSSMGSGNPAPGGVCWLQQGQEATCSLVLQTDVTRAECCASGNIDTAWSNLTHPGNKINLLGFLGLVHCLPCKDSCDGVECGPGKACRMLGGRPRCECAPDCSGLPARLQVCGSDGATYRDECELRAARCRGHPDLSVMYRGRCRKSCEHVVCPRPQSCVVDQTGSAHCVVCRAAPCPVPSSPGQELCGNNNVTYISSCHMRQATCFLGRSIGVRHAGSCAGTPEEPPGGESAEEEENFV
Entries are sorted into classes by composite z-score as follows: lowest (below 0.3), middle (0.3 to below 0.8), highest (0.8 or more)

Some entries whose results are on file:
[in] Pick a category. Item: "CC(=O)OC[C@H]1O[C@H](C#CCC2CCCCC2)C=C[C@@H]1OC(C)=O"
[out] middle

[in] Pick a category. Item: O=C1CCCC=C1C(O)c1ccc([N+](=O)[O-])cc1 (stereo not given)
[out] lowest

[in] Pick a category. Item: O=C(NCCC[N+]1=CC=NC1c1ccccc1)N1CCCc2nc(-c3ccc(Br)cc3)ccc21 (stereo not given)
[out] lowest

[in] Pick a category. Item: COC(=O)[C@H](C)NC(=O)CCC1CC(OC(=O)NCc2cccc3ccccc23)CC2(CCCC(COC(=O)NCCOc3ccccc3)O2)O1 (stereo not given in full)
[out] middle

[in] Pick a category. Item: "COc1ccc(COC(=O)NN=C2C[C@@H](O)[C@@H](O)[C@@H]3[C@@H]4C(=O)N(C[C@@H]5CCCO5)C(=O)[C@@H]4CC[C@@H]23)cc1"
[out] lowest

---
[in] Pick a category. Item: "COC(=O)CC=C1c2ccccc2[C@H](OC)[C@H]1C"
[out] lowest

[in] Pick a category. Item: "CSCC[C@@H]1NC(=O)CC=C[C@@H](C)COC(=O)[C@H](C)COC1=O"
[out] highest

[in] Pick a category. Item: CC(=O)OC[C@H]1O[C@H](CC=NOC(C)CN2CCCCc3nc(C)c(C)cc32)C=C[C@@H]1OC(C)=O (stereo not given in full)
[out] highest

[in] Pick a category. Item: "O=C1C=C[C@@H](O)[C@@H]2[C@@H]3C(=O)N(Cc4ccccc4)C(=O)[C@@H]3CC[C@@H]12"
[out] middle

[in] Pick a category. Item: CCOC(=O)[C@H](Cc1ccccc1)NC(=O)CCC1CC(OC(=O)NCc2cccc3ccccc23)CC2(CCCC(COC(=O)NCCc3ccc(Cl)cc3)O2)O1 (stereo not given in full)
[out] middle

[in] Pick a category. Item: "C#CCCCON=C1[C@H]2CCn3c(=O)n(Cc4cc5c(cc4Cl)OCO5)c(=O)n3[C@H]2[C@H](O)[C@@H]2O[C@H]12"
[out] middle

[in] Pick a category. Item: "CCCNC(=O)OC[C@H]1O[C@H](CCON=C2c3cc(OC)ccc3O[C@H](c3cccc(OC)c3)[C@H]2O)C=C[C@@H]1Oc1ccc(OC)cc1"
[out] middle

[in] Pick a category. Item: CCOC(=O)[C@H](Cc1ccccc1)NC(=O)CCC1CC(OC(=O)NCCc2ccc(F)cc2)CC2(CCCC(COC(=O)NCCOc3ccccc3)O2)O1 (stereo not given in full)
[out] highest

====

test system: Neuregulin-1 EGF-like domain; assay: binders of neuregulin-1 EGF-like domain, primary screen, biochemical, small-molecule microarray, 635 nm fluorescence (AID 1081); settings: small-molecule microarray binding, higher = more signal;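 further: binding of the protein to compounds printed on small-molecule microarray slides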
Listed compounds paired with reported composite z-score
Hey, just send me the number, nothing else.

Here is how some compounds turned out for composite z-score.
[in] Given CCOC(=O)[C@H](CC(C)C)NC(=O)CCC1CC(OC(=O)NCCc2ccc(F)cc2)CC2(CCCC(COC(=O)NCc3cccc4ccccc34)O2)O1 (some centres not stated) , respond with its composite z-score.
[out] 0.76

[in] Given COC(=O)[C@H](C)NC(=O)CCC1CC(OC(=O)NCc2cccc3ccccc23)CC2(CCCC(COC(=O)NCCC(C)C)O2)O1 (some centres not stated) , respond with its composite z-score.
[out] 1.02

[in] Given "CCOC(=O)CCN1C(=O)[C@H]2[C@H]3[C@H](O)[C@H](O)CC(=O)[C@@H]3CC[C@H]2C1=O" , respond with its composite z-score.
[out] 0.482

[in] Given "CCN1C(=O)[C@H]2[C@H]3[C@H](O)[C@H](O)CC(=NNC(=O)OCc4ccccc4)[C@H]3CC[C@H]2C1=O" , respond with its composite z-score.
[out] -0.696

[in] Given "CCCNC(=O)OC[C@H]1O[C@H](CCON=C2C[C@@H](O)[C@@H](O)[C@@H]3[C@@H]4C(=O)N(CC)C(=O)[C@@H]4CC[C@@H]23)C=C[C@@H]1Oc1ccc(OC)cc1" , respond with its composite z-score.
[out] 0.898

---
[in] Given "O=C1[C@H]2[C@H]3[C@H](O)[C@H](O)CC(=NO[C@@H]4O[C@H](CO)[C@@H](O)[C@H](O)[C@H]4O)[C@H]3CC[C@H]2C(=O)N1c1ccc(F)cc1F" , respond with its composite z-score.
[out] -0.977

[in] Given "C=CC[C@@H]1C=C[C@H](ON=C(C)CCN2CCCc3nc(C)c(C)cc32)[C@@H](CO)O1" , respond with its composite z-score.
[out] 0.83
